This section presents compounds with their documented Activity values.
Tested on: J774.A1
run.description: Cytotoxicity against mouse J774.A1 cells assessed as cell viability at 10 uM incubated for 4 hrs by MTT assay relative to control
Type: toxicity, cell-based
cond: j774.a1, 4 h, 10 µM

Input line: Quick check: Activity of `C#CCNS(=O)(=O)c1ccc(CCN(Cc2cc(Cl)ccc2C(F)(F)F)C(=O)Cc2ccsc2)cc1` ?
Output line: 93.1%

Input line: Next: `C#CCNS(=O)(=O)c1ccc(CCN(Cc2cc(Cl)ccc2OCCC)C(=O)c2ccc([N+](=O)[O-])cc2)cc1`
Output line: 101.3%

Input line: Next: `C#CCNS(=O)(=O)c1ccc(CCN(Cc2cc(Cl)ccc2OCCC)C(=O)c2csc3ccccc23)cc1`
Output line: 108.1%

* * *

measured.target: NACHT, LRR and PYD domains-containing protein 3 (Mus musculus)
Sequence (Q8R4B8 whole entry, the tested form may be a part): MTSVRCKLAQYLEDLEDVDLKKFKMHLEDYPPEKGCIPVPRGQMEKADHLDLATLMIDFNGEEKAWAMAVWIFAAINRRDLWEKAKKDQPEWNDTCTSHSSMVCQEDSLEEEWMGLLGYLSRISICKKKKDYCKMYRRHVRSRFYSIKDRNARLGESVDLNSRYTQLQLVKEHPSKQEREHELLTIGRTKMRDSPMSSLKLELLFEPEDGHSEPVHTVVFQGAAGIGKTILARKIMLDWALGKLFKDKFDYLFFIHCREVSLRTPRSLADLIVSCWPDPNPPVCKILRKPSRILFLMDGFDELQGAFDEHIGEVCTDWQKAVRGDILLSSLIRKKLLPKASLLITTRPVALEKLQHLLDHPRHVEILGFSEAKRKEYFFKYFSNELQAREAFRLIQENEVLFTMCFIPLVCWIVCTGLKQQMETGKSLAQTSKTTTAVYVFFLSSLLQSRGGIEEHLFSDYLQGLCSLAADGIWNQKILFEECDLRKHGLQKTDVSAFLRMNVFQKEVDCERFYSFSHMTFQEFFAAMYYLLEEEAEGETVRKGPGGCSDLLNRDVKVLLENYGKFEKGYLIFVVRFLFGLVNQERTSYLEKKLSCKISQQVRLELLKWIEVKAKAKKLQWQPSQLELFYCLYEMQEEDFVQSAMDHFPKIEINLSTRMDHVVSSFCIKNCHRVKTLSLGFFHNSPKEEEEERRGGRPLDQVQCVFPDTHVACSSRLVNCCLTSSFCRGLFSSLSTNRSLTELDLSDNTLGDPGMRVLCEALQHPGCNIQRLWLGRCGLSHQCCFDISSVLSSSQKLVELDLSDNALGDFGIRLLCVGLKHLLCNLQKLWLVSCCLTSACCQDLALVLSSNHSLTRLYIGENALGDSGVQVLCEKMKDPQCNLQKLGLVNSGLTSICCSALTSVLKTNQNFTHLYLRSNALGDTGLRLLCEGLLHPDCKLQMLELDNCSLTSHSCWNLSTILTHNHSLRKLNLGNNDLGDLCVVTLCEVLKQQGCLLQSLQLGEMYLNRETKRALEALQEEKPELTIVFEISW
run.description: Inhibition of NLRP3 inflammasome in LPS-primed mouse J774.A1 cells assessed as reduction in IL-1beta secretion preincubated for 30 mins followed by ATP addition and measured after 30 mins by ELISA
Type: cell-based
This section presents compounds with their documented pIC50 values.
Quick note: pIC50 means taking -log10 of the concentration in moles per liter.

Look over these answered cases.
Input line: Could you share what pIC50 was measured for `C#CCNS(=O)(=O)c1ccc(CCN(Cc2cccc3c2OCO3)C(=O)Cc2ccsc2)cc1` , tested on NACHT, LRR and PYD domains-containing protein 3 (Mus musculus)?
Output line: 6.47

Input line: Next: `C#CCNS(=O)(=O)c1ccc(CCN(Cc2cc(Cl)ccc2OCCC)C(=O)c2ccc(F)cc2)cc1`
Output line: 6.92

Input line: Next: `CCCOc1ccc(Cl)cc1CN(CCc1ccc(S(=O)(=O)N2CCC2)cc1)C(=O)c1csc2ccccc12`
Output line: 5.12

Input line: Next: `C#CCNS(=O)(=O)c1ccc(CCN(Cc2cc(Cl)ccc2OCCC)C(=O)c2ccc(O)cc2)cc1`
Output line: 6.21

Next:
Input line: Could you share what pIC50 was measured for `C#CCNS(=O)(=O)c1ccc(CCN(Cc2cccc3c2OCO3)C(=O)Cc2ccc(F)cc2)cc1` , tested on NACHT, LRR and PYD domains-containing protein 3 (Mus musculus)?
Output line: 6.72

* * *

measured.target: NLR family CARD domain-containing protein 4 (Mus musculus) (UniProt Q3UP24)
Sequence (Q3UP24 whole entry, the tested form may be a part): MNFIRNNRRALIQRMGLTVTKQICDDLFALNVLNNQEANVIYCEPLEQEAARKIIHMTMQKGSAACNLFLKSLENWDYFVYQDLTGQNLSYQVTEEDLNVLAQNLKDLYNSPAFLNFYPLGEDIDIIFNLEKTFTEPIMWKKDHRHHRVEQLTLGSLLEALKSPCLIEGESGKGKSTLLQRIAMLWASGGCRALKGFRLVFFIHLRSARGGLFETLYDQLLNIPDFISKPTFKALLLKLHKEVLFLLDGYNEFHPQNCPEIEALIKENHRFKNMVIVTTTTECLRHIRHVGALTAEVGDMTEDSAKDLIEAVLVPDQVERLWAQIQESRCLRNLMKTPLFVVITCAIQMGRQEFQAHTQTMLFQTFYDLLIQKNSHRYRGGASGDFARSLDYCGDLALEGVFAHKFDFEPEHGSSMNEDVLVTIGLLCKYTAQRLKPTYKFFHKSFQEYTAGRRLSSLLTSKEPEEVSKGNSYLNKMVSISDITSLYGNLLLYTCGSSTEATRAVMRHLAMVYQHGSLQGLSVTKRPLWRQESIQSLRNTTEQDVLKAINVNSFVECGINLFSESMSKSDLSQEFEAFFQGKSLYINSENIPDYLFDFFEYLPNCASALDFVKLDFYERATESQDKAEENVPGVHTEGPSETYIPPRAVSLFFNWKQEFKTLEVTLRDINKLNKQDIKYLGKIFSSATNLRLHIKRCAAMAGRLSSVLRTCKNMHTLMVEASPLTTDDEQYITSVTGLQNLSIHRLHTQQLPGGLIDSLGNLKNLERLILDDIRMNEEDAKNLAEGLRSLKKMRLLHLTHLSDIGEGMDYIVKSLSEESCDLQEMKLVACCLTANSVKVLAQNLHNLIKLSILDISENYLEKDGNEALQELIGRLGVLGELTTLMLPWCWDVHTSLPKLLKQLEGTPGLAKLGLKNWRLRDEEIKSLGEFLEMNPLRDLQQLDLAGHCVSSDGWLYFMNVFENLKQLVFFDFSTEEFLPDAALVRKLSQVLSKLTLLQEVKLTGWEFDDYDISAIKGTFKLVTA
run.description: Inhibition of NLRC4 inflammasome in LPS-primed mouse J774.A1 cells assessed as IL-1beta secretion at 10 uM preincubated for 1 hr followed by flagellin addition and measured after 6 hrs by ELISA relative to control
Type: cell-based
Set-up: scale not given: the % may be the effect or the level left
cond: time 7.0 hrs
Rule: Activity of 70% or more gives condition met; anything lower gives condition not met.

Input line: Given the entry `CCCOc1ccc(Cl)cc1CN(CCc1ccc(S(=O)(=O)N2CCC2)cc1)C(=O)Cc1ccc(F)cc1` , answer whether its Activity meets or surpasses 70%.
Output line: condition met

---
Input line: Given the entry `C#CCNS(=O)(=O)c1ccc(CCN(Cc2cc(Cl)ccc2OCCC)C(=O)c2ccc(F)cc2)cc1` , answer whether its Activity meets or surpasses 70%.
Output line: condition met

Input line: Next: `C#CCNS(=O)(=O)c1ccc(CCN(Cc2cc(Cl)ccc2OCCC)C(=O)Cc2csc3ccccc23)cc1`
Output line: condition met

Input line: Next: `C#CCNS(=O)(=O)c1ccc(CCN(Cc2cc(Cl)ccc2[N+](=O)[O-])C(=O)Cc2ccsc2)cc1`
Output line: condition met

Input line: Next: `CCCOc1ccc(Cl)cc1CN(CCc1ccc(S(=O)(=O)NCC(C)(C)C)cc1)C(=O)Cc1ccsc1`
Output line: condition met

Input line: Next: `C#CCS(=O)(=O)c1ccc(CCN(Cc2cc(Cl)ccc2OCCC)C(=O)Cc2ccsc2)cc1`
Output line: condition not met

Input line: Next: `C#CCNS(=O)(=O)c1ccc(CCN(Cc2ccsc2)Cc2cc(Cl)ccc2OCCC)cc1`
Output line: condition not met

Input line: Next: `C#CCNS(=O)(=O)c1ccc(CCN(Cc2cc(Cl)ccc2OCCC)C(=O)c2csc3ccccc23)cc1`
Output line: condition met
